The reported numbers originate from PubChem BioAssay.

test: ovarian cancer cell viability with rucaparib, profiling panel, oncology-focused library, rucaparib conditional (AID 1508598)
run_parameters: patient-derived ovarian cancer cells, CellTiter-Glo viability, 144 h; at 0.000305 µM; OCI-P5x cells; without rucaparib; active compounds read low
value_kind: viability (%)
Answers are plain numbers, in %.

Observe how each entry below is paired with its result.
Look up viability for this molecule: `CC(C)C(=O)Nc1ccc([N+](=O)[O-])c(C(F)(F)F)c1`
103

Item: `NC(=O)c1ccc(-c2nc(-c3ccc4c(c3)OCO4)c(-c3ccccn3)[nH]2)cc1`
105

`CCN(CC)C(=S)SSC(=S)N(CC)CC` ?
89.7

Can you check O=C1CCC(N2C(=O)c3ccccc3C2=O)C(=O)N1 (stereo not given) next?
103

***
So what does the record say about viability for `CCCCCCNC(=O)n1cc(F)c(=O)[nH]c1=O` ?
129

* * *

test: IRF3 reporter activation in THP-1 macrophages, cell-based, PMA-stimulated THP-1, luminescence (AID 1053176)
run_parameters: PMA-differentiated THP-1, IRF3 reporter luminescence; active compounds read high
Label y for high-side fraction signal (at or above -0.006) and n for low-side fraction signal (below it).

hey, is fraction signal for this one >= -0.006? `CN(C)CCCn1c(-c2nonc2N)nc2cnccc21`
y

New cases:
Decide: fraction signal of `CCc1cccc(NC(=O)Nc2ccc(Oc3ccc4nc(NC(=O)OC)[nH]c4c3)cc2)c1` >= -0.006?
y

* * *

Assignment: determine reported tube area decrease for the given compounds.
test: inhibition of endothelial tube formation, primary screen, imaging, VEGF stimulated, CD31 staining, tube area, NPC library (AID 1117340)
run_parameters: VEGF-stimulated ADSC/ECFC co-culture, at 10 µM, active compounds read high
Give bare numbers, in %.

A selection of reference data follows.
# get_value(readout='tube area decrease', item= `CCOc1ncc(F)c(=O)[nH]1` )
0.1

Please answer likewise for `NS(=O)(=O)c1cc(C(=O)NN2C[C@H]3[C@H]4CCC(C4)[C@H]3C2)ccc1Cl`
-14.3

Proceed to `CCN(CC)CCN`
5.8

Could you do the same for `O=C(O)Cn1c(=O)n(Cc2ccc(Br)cc2F)c(=O)c2ccc(Cl)cc21` , please?
21.7

One more compound: `O=C1CC[C@H](C(=O)N2CCCCC2)N1`
87.3

// each compound listed below needs its tube area decrease
1. CC12CCC(C[N+](C)(CCC[N+](C)(C)C)C1)C2(C)C (stereo unspecified)
2. COC1=C(OC)C(=O)C(CC=C(C)CCC=C(C)CCC=C(C)CCC=C(C)CCC=C(C)CCC=C(C)CCC=C(C)CCC=C(C)CCC=C(C)CCC=C(C)C)=C(C)C1=O

-11.3
-5.2

Lab note: each compound below needs its tube area decrease filled in.
1. CC(=O)Nc1ccn(C2COC(COC(=O)c3ccccc3)O2)c(=O)n1 (stereo unspecified)
2. COC(=O)c1cc(S(N)(=O)=O)ccc1OC
3. CCc1oc2ccccc2c1C(=O)c1cc(I)c(O)c(I)c1
4. CC1(C)CO[C@@H](CC(=O)O)CN1
5. CCCCCCCCCCCCCCCCN
6. Cc1nc([N+](=O)[O-])cn1-c1ccc([N+](=O)[O-])cc1

1: 100; 2: 1.6; 3: 108; 4: -11.6; 5: 6.5; 6: 3.8
